The entries below are paired with their reported Cooperativity (alpha factor).
# Target Desc: human M2 receptor (Homo sapiens, UniProt P08172)
# Sequence (P08172 1-466): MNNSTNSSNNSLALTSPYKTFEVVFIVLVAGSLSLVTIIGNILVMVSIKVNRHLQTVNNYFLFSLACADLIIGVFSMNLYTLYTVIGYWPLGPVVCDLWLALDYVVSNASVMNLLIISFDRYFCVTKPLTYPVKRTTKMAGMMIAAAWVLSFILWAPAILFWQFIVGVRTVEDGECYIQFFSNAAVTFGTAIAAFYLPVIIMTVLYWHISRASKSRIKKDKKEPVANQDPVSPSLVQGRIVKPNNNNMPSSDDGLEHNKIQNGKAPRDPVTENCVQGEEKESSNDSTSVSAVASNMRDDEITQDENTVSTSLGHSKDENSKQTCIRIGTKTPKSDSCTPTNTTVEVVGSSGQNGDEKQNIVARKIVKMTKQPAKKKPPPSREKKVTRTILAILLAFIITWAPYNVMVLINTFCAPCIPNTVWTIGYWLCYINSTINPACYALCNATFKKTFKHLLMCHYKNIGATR
# Assay type: cell-based
# Particulars: shift in the acetylcholine dose-response curve (Allosteric EC50 shift, GraphPad PRISM); α >1 = positive cooperativity

>  <Compound>
O=C(N[C@@H](C1CC1)C(F)(F)F)c1cn(-c2c(F)cc(F)cc2F)c2nc(N3CCNC3=O)ccc2c1=O

>  <Cooperativity (alpha factor)>
16

$$$$
>  <Compound>
C[C@@H]1C[C@H](F)CN1c1ccc2c(=O)c(C(=O)NC34CC5CC(CC(C5)C3)C4)cn(-c3ccc(F)cc3F)c2n1

>  <Cooperativity (alpha factor)>
10

$$$$
>  <Compound>
CC[C@H](NC(=O)c1cn(-c2ccc(F)cc2F)c2nc(N3CCC(O)C3)ccc2c1=O)C(F)(F)F (single isomer, unassigned) [Example 220]

>  <Cooperativity (alpha factor)>
29

$$$$
>  <Compound>
O=C(NC12CC3CC(CC(C3)C1)C2)c1cn(-c2ccc(F)cc2F)c2nc(N3CC[C@@H](F)[C@H](O)C3)ccc2c1=O

>  <Cooperativity (alpha factor)>
30

$$$$
>  <Compound>
N#CC1CCCN(c2ccc3c(=O)c(C(=O)NC45CC6CC(CC(C6)C4)C5)cn(-c4ccc(F)cc4F)c3n2)C1 (stereo not shown)

>  <Cooperativity (alpha factor)>
12

$$$$
>  <Compound>
CC[C@@H](NC(=O)c1cn(-c2ccc(F)cc2F)c2nc(N3CC4CNC(=O)C4C3)ccc2c1=O)C(F)(F)F (mixture of isomers) [Example 221]

>  <Cooperativity (alpha factor)>
24

$$$$
>  <Compound>
CC[C@@H](NC(=O)c1cn(-c2c(F)cccc2F)c2nc(N3CC4CC4(O)C3)ccc2c1=O)C(F)(F)F (mixture of isomers) [Example 304]

>  <Cooperativity (alpha factor)>
24

$$$$
>  <Compound>
CC[C@@H](NC(=O)c1cn(-c2ccc(F)cc2F)c2nc(N3CCNC3=O)ccc2c1=O)C(F)(F)F

>  <Cooperativity (alpha factor)>
6

$$$$
>  <Compound>
CC(C)(C)[C@@H](NC(=O)c1cn(-c2c(F)cc(F)cc2F)c2nc(N3C[C@@H](O)[C@H](O)C3)ccc2c1=O)C(F)(F)F

>  <Cooperativity (alpha factor)>
52

$$$$
>  <Compound>
CN(C)c1ccc2c(=O)c(C(=O)NC34CC5CC(C3)C(F)(F)C(C5)C4)cn(-c3ccc(F)cc3F)c2n1

>  <Cooperativity (alpha factor)>
14

$$$$
>  <Compound>
CC[C@H](NC(=O)c1cn(-c2ccc(F)cc2F)c2nc(N3C[C@@H](C(=O)OC)OC3=O)ccc2c1=O)C(F)(F)F

>  <Cooperativity (alpha factor)>
30

$$$$
>  <Compound>
CCC(NC(=O)c1cn(-c2ccc(F)cc2F)c2nc(N3CCN(C(=O)OC)CC3)ccc2c1=O)C(F)(F)F (single isomer, unassigned; enantiomer b) [Example 25]

>  <Cooperativity (alpha factor)>
20

$$$$
>  <Compound>
CC[C@@H](NC(=O)c1cn(-c2ccc(F)cc2F)c2nc(N3CCC(C)(OC)C3=O)ccc2c1=O)C(F)(F)F (single isomer, unassigned) [Example 198]

>  <Cooperativity (alpha factor)>
13

$$$$
